Answer each item with its documented pKd.
Target: Phosphatidylinositol 4,5-bisphosphate 3-kinase catalytic subunit gamma isoform (Homo sapiens, UniProt P48736)
Sequence (P48736 whole entry, the tested form may be a part, canonical isoform): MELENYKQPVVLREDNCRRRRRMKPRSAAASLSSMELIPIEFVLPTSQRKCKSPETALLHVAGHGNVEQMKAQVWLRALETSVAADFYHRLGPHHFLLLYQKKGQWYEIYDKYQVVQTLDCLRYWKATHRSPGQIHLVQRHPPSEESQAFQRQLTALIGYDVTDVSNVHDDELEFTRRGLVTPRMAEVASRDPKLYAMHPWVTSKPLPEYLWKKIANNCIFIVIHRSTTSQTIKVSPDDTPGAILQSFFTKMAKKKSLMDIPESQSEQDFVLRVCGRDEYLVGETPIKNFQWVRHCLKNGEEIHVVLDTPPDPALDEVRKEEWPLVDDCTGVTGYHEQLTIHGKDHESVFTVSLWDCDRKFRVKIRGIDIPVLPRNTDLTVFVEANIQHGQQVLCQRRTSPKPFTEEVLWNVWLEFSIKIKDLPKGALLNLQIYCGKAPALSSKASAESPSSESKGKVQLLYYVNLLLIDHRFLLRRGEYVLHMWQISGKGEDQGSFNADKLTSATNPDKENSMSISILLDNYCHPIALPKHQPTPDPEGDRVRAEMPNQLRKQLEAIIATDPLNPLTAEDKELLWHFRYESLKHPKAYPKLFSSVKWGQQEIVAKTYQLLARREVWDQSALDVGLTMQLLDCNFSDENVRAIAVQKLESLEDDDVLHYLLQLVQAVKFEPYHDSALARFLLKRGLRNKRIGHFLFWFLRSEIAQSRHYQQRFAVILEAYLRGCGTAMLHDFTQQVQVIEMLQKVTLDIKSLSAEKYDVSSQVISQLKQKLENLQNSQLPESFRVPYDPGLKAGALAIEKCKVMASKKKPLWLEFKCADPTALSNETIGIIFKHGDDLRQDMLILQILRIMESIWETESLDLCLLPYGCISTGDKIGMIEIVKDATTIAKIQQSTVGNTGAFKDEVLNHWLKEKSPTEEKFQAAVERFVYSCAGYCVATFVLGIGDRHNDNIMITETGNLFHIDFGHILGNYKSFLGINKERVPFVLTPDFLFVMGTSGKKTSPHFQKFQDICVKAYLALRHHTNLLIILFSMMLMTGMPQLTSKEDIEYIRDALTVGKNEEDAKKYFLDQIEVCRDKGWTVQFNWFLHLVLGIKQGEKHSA
Test: Binding affinity to human wild-type partial length PI3Kgamma (S144 to A1102 residues) expressed in mammalian expression system by kinome scan assay
Give bare numbers, as −log10 of the molar value.

The reported value for `C[C@@H]1COCCN1c1nc(-c2ccc(N)nc2)nc2c1C[C@@H]1COCCN21` in terms of pKd is 5.06

Give pKd for each listed item.
1. C[C@@H]1COCCN1c1nc(-c2cnc(N)cn2)nc2c1C[C@@H]1COCCN21
2. C[C@@H]1COCCN1c1nc(-c2cnc(N)nc2)nc2c1C[C@@H]1COCCN21

*A*
1. 4.96
2. 5.74
